Below, each entry is listed with its recorded kon.
- system-under-test: T1, recombinant antigen of the extracellular region of CD47 (Sino Biological, Cat: 12283-H08H) (human, UniProt Q08722 19-139)
- T1 construct: extracellular domain; also called recombinant CD47 extracellular region; CD47 recombinant protein
- T1 sequence (Q08722 19-139 limits assumed): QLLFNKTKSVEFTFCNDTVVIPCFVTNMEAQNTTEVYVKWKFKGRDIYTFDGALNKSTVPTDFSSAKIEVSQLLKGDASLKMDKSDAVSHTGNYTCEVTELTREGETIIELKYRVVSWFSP
- protocol-summary: Fortebio BLI, recombinant CD47 extracellular region
Lab book: enter the figure in M⁻¹ s⁻¹, no units written.

Recorded results for 4 binders are shown here.
| binder | kon / M⁻¹ s⁻¹ |
| --- | --- |
| humanized 140 (hz140) (antibody, human IgG4 S228P, kappa, V domains shown, also called anti-CD47 monoclonal antibody; anti-CD47 sidearm monoclonal antibody) VH: QVQLVQSGAEVKKPGASVKVSCKASGYKFTNYVMHWVRQAPGQRLEWMGYINPYNDGIKYNEKFTGRVTITRDTSASTAYMELSSLRSEDTAVYYCAREGDFYANYGRLGFAYWGQGTLVTVSS VL: DIQMTQSPSSLSASVGDRVTITCRASQDITNYLNWYQQKPGKAPKLLIYYTSRLHSGVPSRFSGSGSGTDYTFTISSLQPEDIATYFCQQGDTFPRTFGGGTKVEIKR | 320000 |
| 140Hm9/hz140L (Table 2) (antibody, V domains shown, also called hz140-Hm/hz140L) VH: QVQLVQSGAEVKKPGASVKVSCKASGYKFTNYVMHWVRQAPGQRLEWMGYINPYNEGIKYNEKFTGRVTITRDTSASTAYMELSSLRSEDTAVYYCAREGDFYANYGRLGFAYWGQGTLVTVSS VL: DIQMTQSPSSLSASVGDRVTITCRASQDITNYLNWYQQKPGKAPKLLIYYTSRLHSGVPSRFSGSGSGTDYTFTISSLQPEDIATYFCQQGDTFPRTFGGGTKVEIK | 216000 |
| 140Hm2/hz140L (Table 2) (antibody, V domains shown, also called hz140-Hm/hz140L) VH: QVQLVQSGAEVKKPGASVKVSCKASGYKFTNYAMHWVRQAPGQRLEWMGYINPYNDGIKYNEKFTGRVTITRDTSASTAYMELSSLRSEDTAVYYCAREGDFYANYGRLGFAYWGQGTLVTVSS VL: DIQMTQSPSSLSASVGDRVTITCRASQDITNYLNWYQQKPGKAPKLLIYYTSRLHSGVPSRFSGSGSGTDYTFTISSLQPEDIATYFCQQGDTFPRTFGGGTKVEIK | 266000 |
| 140Hm5/hz140L (Table 2) (antibody, V domains shown, also called hz140-Hm/hz140L) VH: QVQLVQSGAEVKKPGASVKVSCKASGYKFTNYVMHWVRQAPGQRLEWMGYINPGNDGIKYNEKFTGRVTITRDTSASTAYMELSSLRSEDTAVYYCAREGDFYANYGRLGFAYWGQGTLVTVSS VL: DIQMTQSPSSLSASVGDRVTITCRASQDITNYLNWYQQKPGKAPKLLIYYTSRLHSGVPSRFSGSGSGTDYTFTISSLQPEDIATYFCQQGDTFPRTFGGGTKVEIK | 224000 |

stdin: # query: kon of entry 140Hm10/hz140L (Table 2) (antibody, V domains shown, also called hz140-Hm/hz140L) VH: QVQLVQSGAEVKKPGASVKVSCKASGYKFTNYVMSWVRQAPGQRLEWMGYINPYNDAIKYNEKFTGRVTITRDTSASTAYMELSSLRSEDTAVYYCAREGDFYANYGRLGFAYWGQGTLVTVSS VL: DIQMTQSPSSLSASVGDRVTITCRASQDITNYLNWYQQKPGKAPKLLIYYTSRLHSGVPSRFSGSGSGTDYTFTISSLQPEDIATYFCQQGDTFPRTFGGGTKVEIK
stdout: 258000
